Test system: DLD-1
Procedure Summary: MTS assay, DLD-1 cells
Type: cell-based
Condition Parameters: Homo sapiens, 72 hours, read-out: DLD-1, MTS cell kill % inhibition
Endpoint Label: inhibition at 10 µM

The value of inhibition at 10 µM recorded for COCC(C)NC(=O)c1ccc2[nH]c(-c3ccc[nH]c3=O)c(-c3ccccc3)c2c1 (stereo not drawn) when tested on DLD-1 reads 50 to 79%

The value of inhibition at 10 µM recorded for CC(C)c1cccc(-c2c(-c3ccc[nH]c3=O)[nH]c3ccc(C(=O)NCCCN4CCOCC4)cc23)c1 when tested on DLD-1 reads 80 to 100%

The value of inhibition at 10 µM recorded for COc1ccc(NC(=O)c2ccc3[nH]c(-c4ccc[nH]c4=O)c(-c4ccc(-c5ccccc5)cc4)c3c2)cc1 when tested on DLD-1 reads 50 to 79%

The value of inhibition at 10 µM recorded for Cc1cccc(-c2c(-c3ccc[nH]c3=O)[nH]c3ccc(C(=O)NCCCN4CCOCC4)cc23)c1 when tested on DLD-1 reads 50 to 79%

The value of inhibition at 10 µM recorded for O=C(Nc1ccc(F)cc1Cl)c1ccc2[nH]c(-c3ccc[nH]c3=O)c(-c3ccccc3)c2c1 when tested on DLD-1 reads 50 to 79%

The value of inhibition at 10 µM recorded for O=C(NCCc1ccccn1)c1ccc2[nH]c(-c3ccc[nH]c3=O)c(-c3ccc(-c4ccccc4)cc3)c2c1 when tested on DLD-1 reads 80 to 100%

The value of inhibition at 10 µM recorded for COc1ccc(-c2c(-c3ccc[nH]c3=O)[nH]c3ccc(C(=O)NCCCN4CCOCC4)cc23)cc1 when tested on DLD-1 reads 50 to 79%

The value of inhibition at 10 µM recorded for O=c1[nH]cccc1-c1[nH]c2ccccc2c1C1CCN(Cc2cccc3ccccc23)CC1 when tested on DLD-1 reads 80 to 100%

The value of inhibition at 10 µM recorded for CN(C)CCCNC(=O)c1ccc2[nH]c(-c3ccc[nH]c3=O)c(-c3ccc(-c4ccccc4)cc3)c2c1 when tested on DLD-1 reads 80 to 100%

The value of inhibition at 10 µM recorded for COc1cccc(CCNC(=O)c2ccc3[nH]c(-c4ccc[nH]c4=O)c(-c4ccccc4)c3c2)c1OC when tested on DLD-1 reads 80 to 100%

The value of inhibition at 10 µM recorded for O=C(NCCCN1CCOCC1)c1ccc2[nH]c(-c3ccc[nH]c3=O)c(-c3cccc(Cl)c3)c2c1 when tested on DLD-1 reads 80 to 100%

The value of inhibition at 10 µM recorded for O=C(NCCCN1CCOCC1)c1ccc2[nH]c(-c3ccc[nH]c3=O)c(-c3cc(Cl)cc(Cl)c3)c2c1 when tested on DLD-1 reads 80 to 100%

The value of inhibition at 10 µM recorded for CN(C)CCCNC(=O)c1ccc2[nH]c(-c3ccc[nH]c3=O)c(-c3ccccc3)c2c1 when tested on DLD-1 reads 80 to 100%

The value of inhibition at 10 µM recorded for COC(=O)c1ccc2[nH]c(-c3ccc[nH]c3=O)c(-c3ccc(-c4ccccc4)cc3)c2c1 when tested on DLD-1 reads < 50%

The value of inhibition at 10 µM recorded for Cc1cc(C)cc(-c2c(-c3ccc[nH]c3=O)[nH]c3ccc(C(=O)NCCCN4CCOCC4)cc23)c1 when tested on DLD-1 reads 80 to 100%

---

Target Entity: IGF-1R (Homo sapiens, UniProt P08069)
Sequence (P08069 31-1367): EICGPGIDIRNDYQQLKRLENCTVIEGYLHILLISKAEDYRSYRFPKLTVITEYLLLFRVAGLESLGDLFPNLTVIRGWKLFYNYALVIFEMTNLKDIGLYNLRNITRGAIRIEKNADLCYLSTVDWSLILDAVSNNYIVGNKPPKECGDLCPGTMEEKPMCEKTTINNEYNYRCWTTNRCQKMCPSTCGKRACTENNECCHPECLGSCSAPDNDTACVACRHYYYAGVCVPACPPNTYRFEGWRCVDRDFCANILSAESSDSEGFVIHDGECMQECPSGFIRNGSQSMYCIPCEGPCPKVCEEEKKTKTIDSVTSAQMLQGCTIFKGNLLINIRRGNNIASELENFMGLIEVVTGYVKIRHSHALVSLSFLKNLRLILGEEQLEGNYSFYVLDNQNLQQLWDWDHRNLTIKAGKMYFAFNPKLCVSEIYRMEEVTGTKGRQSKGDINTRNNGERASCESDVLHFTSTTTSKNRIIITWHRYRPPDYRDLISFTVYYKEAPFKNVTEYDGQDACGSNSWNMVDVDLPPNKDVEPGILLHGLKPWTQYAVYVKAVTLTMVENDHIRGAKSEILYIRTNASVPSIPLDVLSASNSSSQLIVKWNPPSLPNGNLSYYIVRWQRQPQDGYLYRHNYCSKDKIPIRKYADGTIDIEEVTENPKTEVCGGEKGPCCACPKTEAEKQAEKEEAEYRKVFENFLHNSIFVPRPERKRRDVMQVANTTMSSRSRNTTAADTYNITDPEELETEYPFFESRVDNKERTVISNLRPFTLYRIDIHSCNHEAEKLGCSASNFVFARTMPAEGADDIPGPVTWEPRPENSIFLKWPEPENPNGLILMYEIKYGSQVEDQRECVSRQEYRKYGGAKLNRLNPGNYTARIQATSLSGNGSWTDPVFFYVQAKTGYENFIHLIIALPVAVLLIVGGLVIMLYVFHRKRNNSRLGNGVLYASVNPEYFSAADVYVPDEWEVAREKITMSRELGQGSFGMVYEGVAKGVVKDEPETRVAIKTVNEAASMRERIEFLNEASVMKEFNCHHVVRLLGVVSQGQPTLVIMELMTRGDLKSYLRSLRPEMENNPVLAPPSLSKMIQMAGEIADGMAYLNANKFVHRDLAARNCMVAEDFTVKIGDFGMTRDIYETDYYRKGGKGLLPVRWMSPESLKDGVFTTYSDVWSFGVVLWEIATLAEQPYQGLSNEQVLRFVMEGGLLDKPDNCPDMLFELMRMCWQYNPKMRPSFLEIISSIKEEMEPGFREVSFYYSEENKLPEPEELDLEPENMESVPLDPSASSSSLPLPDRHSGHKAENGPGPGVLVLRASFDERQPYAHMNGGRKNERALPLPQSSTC
Procedure Summary: IGFR1 activity assay (ELISA)
Assay type: biochemical
Condition Parameters: read-out: IGF-1R, PCT INH (30 μM), ELISA
Endpoint Label: inhibition at 30 µM

Sure, the documented inhibition at 30 µM for O=C(c1ccc2[nH]c(-c3ccc[nH]c3=O)c(-c3ccc(-c4ccccc4)cc3)c2c1)N1CCN(CCN2CCOCC2)CC1 [Compound 37] is 80 to 100%

Sure, the documented inhibition at 30 µM for CN1CCC(N2CCN(C(=O)c3ccc4[nH]c(-c5ccc[nH]c5=O)c(-c5ccc(-c6ccccc6)cc5)c4c3)CC2)CC1 [Compound 50] is 50 to 79%

Sure, the documented inhibition at 30 µM for O=C(NC1CCC1)c1ccc2[nH]c(-c3ccc[nH]c3=O)c(-c3ccccc3)c2c1 [Compound 26] is 80 to 100%

Sure, the documented inhibition at 30 µM for CN(C)CCCN(C)C(=O)c1ccc2[nH]c(-c3ccc[nH]c3=O)c(-c3ccc(-c4ccccc4)cc3)c2c1 [Compound 46] is 80 to 100%

Sure, the documented inhibition at 30 µM for CCN(CC)CCCNC(=O)c1ccc2[nH]c(-c3ccc[nH]c3=O)c(-c3ccccc3)c2c1 [Compound 2] is 80 to 100%

Sure, the documented inhibition at 30 µM for CCc1ccc(-c2c(-c3ccc[nH]c3=O)[nH]c3ccc(C(=O)NCCCN4CCOCC4)cc23)cc1 [Compound 65] is 80 to 100%

Sure, the documented inhibition at 30 µM for O=C(Nc1ccccc1Cl)c1ccc2[nH]c(-c3ccc[nH]c3=O)c(-c3ccccc3)c2c1 [Compound 12] is < 50%

Sure, the documented inhibition at 30 µM for COc1cccc(CCNC(=O)c2ccc3[nH]c(-c4ccc[nH]c4=O)c(-c4ccccc4)c3c2)c1OC [Compound 19] is 80 to 100%

Sure, the documented inhibition at 30 µM for O=C(NC1CCNCC1)c1ccc2[nH]c(-c3ccc[nH]c3=O)c(-c3ccccc3)c2c1 [Compound 3] is 50 to 79%

Sure, the documented inhibition at 30 µM for O=C(Nc1cccc(F)c1)c1ccc2[nH]c(-c3ccc[nH]c3=O)c(-c3ccccc3)c2c1 [Compound 13] is 50 to 79%

Sure, the documented inhibition at 30 µM for O=C(NCc1ccc(F)cc1F)c1ccc2[nH]c(-c3ccc[nH]c3=O)c(-c3ccccc3)c2c1 [Compound 10] is 80 to 100%

Sure, the documented inhibition at 30 µM for O=C(NCCCN1CCOCC1)c1ccc2[nH]c(-c3ccc[nH]c3=O)c(-c3ccccc3)c2c1 [Compound 1] is 80 to 100%

Sure, the documented inhibition at 30 µM for COc1ccc(NC(=O)c2ccc3[nH]c(-c4ccc[nH]c4=O)c(-c4ccccc4)c3c2)cc1 [Compound 29] is 80 to 100%

Sure, the documented inhibition at 30 µM for CN(CCc1ccccc1)C(=O)c1ccc2[nH]c(-c3ccc[nH]c3=O)c(-c3ccc(-c4ccccc4)cc3)c2c1 [Compound 43] is < 50%

Sure, the documented inhibition at 30 µM for O=c1[nH]cccc1-c1[nH]c2ccccc2c1-c1ccccc1 [Compound 84] is 80 to 100%

---

Give measured inhibition at 10 µM for each item. Keep answers brief.
Test system: DLD-1
Procedure Summary: MTS assay, DLD-1 cells
Assay type: cell-based
Condition Parameters: Homo sapiens, 72 hours, read-out: DLD-1, MTS cell kill % inhibition

Sure, the documented inhibition at 10 µM for CN(Cc1cccnc1)C(=O)c1ccc2[nH]c(-c3ccc[nH]c3=O)c(-c3ccc(-c4ccccc4)cc3)c2c1 is 80 to 100%

Sure, the documented inhibition at 10 µM for COc1ccc(NC(=O)c2ccc3[nH]c(-c4ccc[nH]c4=O)c(-c4ccccc4)c3c2)cc1 is 50 to 79%

Sure, the documented inhibition at 10 µM for CN(C(=O)c1ccc2[nH]c(-c3ccc[nH]c3=O)c(-c3ccccc3)c2c1)c1ccc(F)cc1 is 80 to 100%

Sure, the documented inhibition at 10 µM for O=C(NCCCn1ccnc1)c1ccc2[nH]c(-c3ccc[nH]c3=O)c(-c3ccccc3)c2c1 is 50 to 79%

Sure, the documented inhibition at 10 µM for O=C(Nc1cccc(F)c1)c1ccc2[nH]c(-c3ccc[nH]c3=O)c(-c3ccccc3)c2c1 is 80 to 100%

Sure, the documented inhibition at 10 µM for O=C(NCc1ccc(F)cc1F)c1ccc2[nH]c(-c3ccc[nH]c3=O)c(-c3ccc(-c4ccccc4)cc3)c2c1 is 50 to 79%

Sure, the documented inhibition at 10 µM for O=C(NCCCN1CCOCC1)c1ccc2[nH]c(-c3ccc[nH]c3=O)c(-c3ccc(F)cc3F)c2c1 is < 50%

Sure, the documented inhibition at 10 µM for O=C(c1ccc2[nH]c(-c3ccc[nH]c3=O)c(-c3ccc(-c4ccccc4)cc3)c2c1)N1CCCCC1 is 80 to 100%

Sure, the documented inhibition at 10 µM for O=C(c1ccc2[nH]c(-c3ccc[nH]c3=O)c(-c3ccccc3)c2c1)N1CCc2ccccc2C1 is 80 to 100%

---

Give measured melting point for each item. Keep answers brief.

Sure, the documented melting point for O=C(c1ccc2[nH]c(-c3ccc[nH]c3=O)c(-c3ccc(-c4ccccc4)cc3)c2c1)N1CCc2ccccc2C1 [Compound 47] is 101 to 110 °C

Sure, the documented melting point for CC(C)Oc1ccc(-c2c(-c3ccc[nH]c3=O)[nH]c3ccc(C(=O)NCCCN4CCOCC4)cc23)cc1 [Compound 66] is 140 to 143 °C

Sure, the documented melting point for O=C(NCCCN1CCOCC1)c1ccc2[nH]c(-c3ccc[nH]c3=O)c(-c3cc4cccc5c4n3CCC5)c2c1 [Compound 8] is 181 to 189 °C

Sure, the documented melting point for O=C(NC1CCNCC1)c1ccc2[nH]c(-c3ccc[nH]c3=O)c(-c3ccccc3)c2c1 [Compound 3] is 233 to 236 °C

Sure, the documented melting point for COc1ccc(NC(=O)c2ccc3[nH]c(-c4ccc[nH]c4=O)c(-c4ccccc4)c3c2)cc1 [Compound 29] is 279 to 283 °C

Sure, the documented melting point for O=C(NCCOc1ccccc1)c1ccc2[nH]c(-c3ccc[nH]c3=O)c(-c3ccc(-c4ccccc4)cc3)c2c1 [Compound 51] is 147 to 153 °C

Sure, the documented melting point for CN(Cc1cccnc1)C(=O)c1ccc2[nH]c(-c3ccc[nH]c3=O)c(-c3ccc(-c4ccccc4)cc3)c2c1 [Compound 33] is 92 to 97 °C

Sure, the documented melting point for O=c1[nH]cccc1-c1[nH]c2ccccc2c1-c1ccccc1 [Compound 84] is 240 to 242 °C

Sure, the documented melting point for O=C(NCCCN1CCOCC1)c1ccc2[nH]c(-c3ccc[nH]c3=O)c(Br)c2c1 [Compound 56] is 138 to 142 °C

Sure, the documented melting point for O=C(c1ccc2[nH]c(-c3ccc[nH]c3=O)c(-c3ccc(-c4ccccc4)cc3)c2c1)N1CCN(c2cnccn2)CC1 [Compound 45] is 289 to 296 °C

Sure, the documented melting point for CN(CCc1ccccc1)C(=O)c1ccc2[nH]c(-c3ccc[nH]c3=O)c(-c3ccc(-c4ccccc4)cc3)c2c1 [Compound 43] is 136 to 141 °C

Sure, the documented melting point for O=C(NCCCN1CCOCC1)c1ccc2[nH]c(-c3ccc[nH]c3=O)c(-c3ccc(Cl)c(Cl)c3)c2c1 [Compound 59] is 135 to 138 °C

Sure, the documented melting point for O=C(Nc1cccc(F)c1)c1ccc2[nH]c(-c3ccc[nH]c3=O)c(-c3ccccc3)c2c1 [Compound 13] is 176 to 182 °C

Sure, the documented melting point for O=C(NCCCn1ccnc1)c1ccc2[nH]c(-c3ccc[nH]c3=O)c(-c3ccccc3)c2c1 [Compound 6] is 153 to 157 °C

Sure, the documented melting point for O=C(NCc1ccccn1)c1ccc2[nH]c(-c3ccc[nH]c3=O)c(-c3ccc(-c4ccccc4)cc3)c2c1 [Compound 42] is 123 to 127 °C

Sourced from patent US8410144B2
